assay: yeast display, Sf9 membrane polyspecificity reagent, FACS + sequencing; frameworks hold sequencing errors
Endpoint name: polyreactivity (PSR sort gate)

QVQLVESGGGLVQAGGSLRLSCAASGSTFDPYAMGWYRQAPGKERELVAAISRSGASTYADSVKGRFTISRDNAKNTVYLQMNSLKPEDTAVYYCAADSGYPYDYWGQGTQVTVSS
low polyreactivity
QVQLVESGGGLVQEGGSLRLSCAASGIIFYYNAMGWYRQAPGKERELVARITWRAGSTYYADSVKGRFTISRDNAKNTVYLQMNSLKPEDTAVYYCNADHDGLGYYYWGQGTQVTVSS
high polyreactivity
QVQLVESGGGLVQAGGSLRLSCAASGRISRLYAMGWYRPAPGKERELVAAITDSGGSTYYADSVKGRFTISRDTAKNTVYLQMNSLKPEDTAVYYCAATWSNWYREYYYWGQGTQVTVSS
high polyreactivity
QVQLVESGGGLVQAGGSLRLSCAASGRILRWNAMGWYRQAPGKEREMVAAIDWRGGSTYYADSVKGRFTISRDNAKNTVYLQMNSLKPEDTAVYYCAVDYYPYEVSYVRMDYWGQGTQVTVSS
low polyreactivity
QVQLVESGGGLVQAGGSLRLSCAASGRISKGYAMGWYRPAPGKERELVAAISWRTSSTYYADSVKGRFTISRDNAKNTVYLQMNSLKPEANAVYYCAAETWLGSWRQVGMDYWGQGTQVTVSS
high polyreactivity

State, in one line, measured polyreactivity (PSR sort gate) of QVQLVESGGGLVQAGGSLRLSCAASGRTFANYAMGWYRQAPGKERELVATITWSDGSTYADSVKGRFTISRDNAKNTVYLQMNSLKPEDTAVYYCATRRYGKVFYPSQYTRYDYWGQGTQVTVSS
high polyreactivity

Identify measured polyreactivity (PSR sort gate) associated with QVQLQESGGGLLLAGGSLRLSCSASGNISVYGSMGWYRQAPGKEREFVATIDPGTNTNYADSVKDRFTISRDNAKNTVYLQMNSLKPEDTAVYYCAVEAGSDWPYRYWGQGTQVTVSS
low polyreactivity

For the sequence QVQLVESGGGLVQAGGSLRLSCAASGSIFFLYAMGWYRQAPGKERELVAGINLSGGSTYYADSVKGRFTISRDNAKNTVYLQMNSLKPEDTAVYYCNAYLPSPYSSSYIFDYDSWGQGTQVTVSS , give its measured polyreactivity (PSR sort gate) value.
low polyreactivity

Please supply the value of reported polyreactivity (PSR sort gate) for the item HVQLVESGGGLVQAGGSLRLSCAASGSTFSRYAMGWYRQAPGKERELVAAISSSGGSTYYADSVKGRFTISRDNAKNTVYLQMNSLKPEDTAVYYCAARQYFFSSWRFDYWGQGTQVTVSS
high polyreactivity

Hello, please tell me recorded polyreactivity (PSR sort gate) for this one: QVQLVESGGGLVQAGGSLRLSCAASGFTFGDYAMGWYRQAPGKEWELVAAISWSAGSTYYADSVKGRFTISRDNAKNTVYVQMNSLKPEDTAVYYCAADDSATIEDDYWGQGTQVTVSS
high polyreactivity

Look up and report measured polyreactivity (PSR sort gate) for this entry: QVQLVESGGGLVQAGGSLRLSCAASGYTFYRYAMGWYRQAPGKERELVARISRSGGSTFYADSVKGRFTISRDNAKNTVYLQMNSLKPEDTAVYYCNAKQYSPYYLVIYHYWGQGTQVTVSS
high polyreactivity

Read the entry QVPLVESGVGLVQAGGSLRLSCAASGSTFTIYAMGWYREAPGKERELVAAITWNGGSTYYADSVKGRFTISRDNAKKTVYLQMNSLKPEDTAVYYCADDYYWYWDLYDYWGQGTQVTVSS and write its reported polyreactivity (PSR sort gate).
high polyreactivity

Please supply the value of reported polyreactivity (PSR sort gate) for the item QVQLVESGGGLVQAGRSLRLICAASGSTFYVNAMGWYRQAPGKEREFVAAIRWPGGSTYYADSVKWRFTISRDNAKNTFYVQMNSLKPEDTAVFYCAARIKYRYVWGQGTQVTVSS
low polyreactivity

Return value of polyreactivity (PSR sort gate) for input QVQLVESGGGLVQAGGSLRLSCAASGSTFQINAMGWYRQAPGKEREFVAAITVSSGSTYYADSVKGRFTISRDNAKNTVYLQMNSLKPEDTAVYYCAAEFHWWYAGYDYGYWGQGTQVTVSS , no commentary.
low polyreactivity

Read off the recorded polyreactivity (PSR sort gate) for QVQLVESGGGLVQAGGSLRLSCSASGFTFRSYAMGWYRQAPGEEREFVAAISRRGDSTYYADSVKGRFTISRDNAKNTVYLQMNSLKPEDTAVYYCAKYGIASRYSRFDSWGQGTQVTVSS
high polyreactivity
